The measured values listed here are drawn from patent US20230265151A1.

TARGET OF ASSAY: T1, human GIP receptor (human) (UniProt P48546)
T1 sequence (looked up): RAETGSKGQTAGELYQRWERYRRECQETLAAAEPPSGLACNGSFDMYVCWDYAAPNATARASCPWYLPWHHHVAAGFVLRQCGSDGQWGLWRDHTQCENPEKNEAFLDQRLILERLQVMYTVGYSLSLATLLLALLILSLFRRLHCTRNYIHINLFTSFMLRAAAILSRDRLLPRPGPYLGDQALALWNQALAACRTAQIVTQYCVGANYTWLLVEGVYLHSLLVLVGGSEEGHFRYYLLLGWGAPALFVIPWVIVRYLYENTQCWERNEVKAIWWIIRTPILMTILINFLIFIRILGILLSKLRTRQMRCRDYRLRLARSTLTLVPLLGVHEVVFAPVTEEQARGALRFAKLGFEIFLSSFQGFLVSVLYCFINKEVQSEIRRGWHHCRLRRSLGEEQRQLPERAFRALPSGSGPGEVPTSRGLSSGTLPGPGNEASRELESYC
PROTOCOL: cell-based or functional assay
OBSERVED PROPERTY: cAMP EC50 (pM)
# unit: pM | format: bare number

**Q:** Using the record for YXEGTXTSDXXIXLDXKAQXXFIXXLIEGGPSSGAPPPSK (Y-Aib-EGT-αMeF(2F)-TSD-4Pal-Aib-I-αMeL-LD-Orn-K((2-[2-(2-Amino-ethoxy)-ethoxy]-acetyl)2-(γ-Glu)-CO-(CH2)10-CH3)AQ-Aib-Orn-FI-(D-Glu)-αMeY-LIEGGPSSGAPPPSK((2-[2-(2-Amino-ethoxy)-ethoxy]-acetyl)2-(γ-Glu)-CO-(CH2)10-CH3)-NH2) [Example 418] , report its cAMP EC50.
**A:** 5.99

**Q:** Using the record for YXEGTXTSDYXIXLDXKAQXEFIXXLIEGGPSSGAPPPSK (Y-Aib-EGT-αMeF(2F)-TSDY-Aib-I-αMeL-LD-Orn-K((2-[2-(2-Amino-ethoxy)-ethoxy]-acetyl)-(γ-Glu)-(10-(4-carboxyphenoxy)decanoyl))AQ-Aib-EFI-(D-Glu)-αMeY-LIEGGPSSGAPPPSK((2-[2-(2-Amino-ethoxy)-ethoxy]-acetyl)-(γ-Glu)-(10-(4-carboxyphenoxy)decanoyl))-NH2) [Example 374] , report its cAMP EC50.
**A:** 13.5

**Q:** Using the record for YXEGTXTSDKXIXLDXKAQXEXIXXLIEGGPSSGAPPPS (Y-Aib-EGT-αMeF(2F)-TSDK((2-[2-(2-Amino-ethoxy)-ethoxy]-acetyl)2-(γ-Glu)-CO-(CH2)10-CH3)-Aib-I-αMeL-LD-Orn-K((2-[2-(2-Amino-ethoxy)-ethoxy]-acetyl)2-(γ-Glu)-CO-(CH2)10-CH3)AQ-Aib-E-αMeF-I-(D-Glu)-αMeY-LIEGGPSSGAPPPS-NH2) [Example 429] , report its cAMP EC50.
**A:** 7.99
